// reported IC50 for each item listed
# TEST TARGET: S. aureus SrtA (Staphylococcus aureus, UniProt Q2FV99)
# Sequence (Q2FV99 60-206): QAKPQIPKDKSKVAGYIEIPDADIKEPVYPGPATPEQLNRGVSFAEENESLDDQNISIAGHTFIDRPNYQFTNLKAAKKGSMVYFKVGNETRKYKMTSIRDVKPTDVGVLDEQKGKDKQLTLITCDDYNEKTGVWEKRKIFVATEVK
# ASSAY DETAILS: FRET assay of SrtA-catalyzed hydrolysis of Abz-LPETG-Dap(Dnp); IC50 / Ki app
# Format: biochemical
# CONDITION LABEL: purified enzyme, FRET; read-out: IC50 for inhibition of S. aureus SrtA
Answer format: numeric, µM implied, no suffix.

Look over these answered cases.
# SMILES NOTATION, IC50 / µM
data = [
    ("CCSc1c(S)cnn(-c2ccccc2)c1=O", 1.4),
    ("Cc1oc(CN)nc1C(=O)c1nccs1", 7.2),
]

Moving on to the next molecule.
// CC1=NN(c2ccccc2)C(=S)/C1=C/Nc1c(Br)cc(Br)cc1Br : IC50 value = 0.3
